Assay: Stability test in an aqueous solution
Assay type: physicochemical
Settings: physiological saline; 7 days, 25° C., 10 μg/ml in physiological sodium chloride solution; read-out: Remaining ratio 7 days
Reported remaining at 168 h by item:
quantity: remaining at 168 h (%)

                                  structure            quantity  units  reported_result
0  CCC#CC[C@H](C)[C@H](O)/C=C/[C@@H]1[C@@H]2[C@H](C[C@H]1O)O/C(=C\CCCC(=O)O)C2(F)F  remaining at 168 h      %              102
1  CCC#CC[C@H](C)[C@@H](O)/C=C/[C@@H]1[C@@H]2[C@H](C[C@H]1O)O/C(=C\CCCC(=O)O)C2(F)F  remaining at 168 h      %             99.5
2  O=C(O)CCC/C=C1\O[C@H]2C[C@@H](O)[C@H](/C=C/[C@@H](O)C3CCCC3)[C@H]2C1(F)F  remaining at 168 h      %              100
3  CCCCC[C@H](O)/C=C/[C@@H]1[C@@H]2[C@H](C[C@H]1O)O/C(=C\CCCC(=O)O)C2(F)F  remaining at 168 h      %             99.3
4  Cc1cccc(C[C@H](O)/C=C/[C@@H]2[C@@H]3[C@H](C[C@H]2O)O/C(=C\CCCC(=O)O)C3(F)F)c1  remaining at 168 h      %              101
